B1: tRNA (parent)
chain: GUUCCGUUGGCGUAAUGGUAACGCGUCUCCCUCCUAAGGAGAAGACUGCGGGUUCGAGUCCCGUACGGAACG

variants of: B1; assay: yeast fitness relative to wild type (ratio to wild type); higher = fitter; tRNA-Arg(CCU), competitive growth, 37 C, YPD
Variants at the floor of the assay were thinned out.
Assign Satisfied to entries whose yeast fitness meets or exceeds 0.7; assign Not satisfied to the rest.

Q. Kindly determine if yeast fitness recorded for C31A C55A C61A G63A is above or exactly 0.7.
A. Not satisfied

Q. Determine whether measured yeast fitness meets or exceeds 0.7 for A14G C33U G63A
A. Not satisfied

Q. # check: yeast fitness of U7C G9A C31G is greater than or equal to 0.7
A. Satisfied

Q. Say whether A42U G56A G63C shows yeast fitness of 0.7 or more.
A. Not satisfied

Q. Evaluate U16A G41C A45C : yeast fitness at minimum 0.7?
A. Not satisfied

Q. Check this variant for yeast fitness at or above 0.7: A36C C49U C55U
A. Not satisfied

Q. Say whether U13A A20G C24U U35C C49U C60A C66G shows yeast fitness of 0.7 or more.
A. Not satisfied

Q. hey, is yeast fitness for this one >= 0.7? G39A A45C
A. Satisfied

Q. Is reported yeast fitness greater than or equal to 0.7 here: G6A G9C C24U C30G C31A A43G A65C
A. Not satisfied

Q. Does U16A C55A A69C have a reported yeast fitness of at least 0.7?
A. Not satisfied

Q. State whether the measured yeast fitness reaches 0.7, counting equality as reaching it, for C11G A15C G48C C55G G67C A70U
A. Not satisfied

Q. Decide: is the reported value of yeast fitness for A37G G67A equal to or greater than 0.7?
A. Satisfied

Q. Please tell me: is the variant G44A G50C A70G at or over 0.7 in terms of yeast fitness?
A. Not satisfied

Q. Does yeast fitness meet or surpass 0.7 for G9A G50C ?
A. Satisfied

Q. Is it the case that C11U C49U G56A A65C has yeast fitness reaching or exceeding 0.7?
A. Not satisfied

Q. Entry A15U G17C A45U C49G C55U A70U : is its yeast fitness no less than 0.7?
A. Not satisfied

Q. Determine whether this variant has yeast fitness no lower than 0.7: C11G A15C C24G C46A
A. Not satisfied

Q. Quick check: does G41A C49A C62U G68C have yeast fitness greater than or equal to 0.7?
A. Not satisfied
